Origin of the recorded values: PubChem BioAssay

# assay procedure: probe aInhba binding on compound microarray – biochemical, small-molecule microarray, 635/667 nm fluorescence, primary screen (AID 1148);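 also: score merges 667nm spot fluorescence with signal-to-noise for antibody binding to printed compounds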
# protocol conditions: higher = more signal
Kindly return Yes if reported composite z-score is no lower than -0.08; return No if it is lower.

[[record]]
compound = "C=C(COC)C(=O)CC[C@H](OC(=O)c1cccnc1)c1ccccc1OCCO"
class = "Yes"

[[record]]
compound = "COCCn1c(C(=O)N(C)C)cc2c1C[C@H]1CN(C(=O)c3ccccc3)[C@@](Cc3ccc(F)cc3)(C(=O)OC)[C@@H]21"
class = "No"

[[record]]
compound = "O=C1OCC=C[C@H]2OC34C=CCN(CCN5CCOCC5)C(=O)[C@H]3N(CCCCCCO)C(=O)[C@@H]4[C@@H]12 (some centres not stated)"
class = "Yes"

[[record]]
compound = "COCCOC(=O)N1C(=O)[C@@]2(c3cc(C#CCC(C(=O)OC)C(=O)OC)ccc31)[C@H](c1ccccc1OCCO)N1[C@H](c3ccccc3)[C@H](c3ccccc3)OC(=O)[C@H]1[C@@H]2C(=O)Nc1nc2ccccc2s1"
class = "Yes"

[[record]]
compound = "COC(=O)[C@@]1(Cc2ccc(F)cc2)[C@H]2c3cc(C(=O)N4CCCC4)n(Cc4ccc(Cl)c(C(F)(F)F)c4)c3C[C@H]2CN1C(=O)c1ccccc1"
class = "Yes"

[[record]]
compound = "Cc1ccc(N2C(=O)c3ccccc3[C@@H](C(=O)NCC(C)C)[C@@H]2c2ccc(CO)cc2)nc1"
class = "No"

